- Assayed System: Yer064c (UniProt P40041)
- Sequence: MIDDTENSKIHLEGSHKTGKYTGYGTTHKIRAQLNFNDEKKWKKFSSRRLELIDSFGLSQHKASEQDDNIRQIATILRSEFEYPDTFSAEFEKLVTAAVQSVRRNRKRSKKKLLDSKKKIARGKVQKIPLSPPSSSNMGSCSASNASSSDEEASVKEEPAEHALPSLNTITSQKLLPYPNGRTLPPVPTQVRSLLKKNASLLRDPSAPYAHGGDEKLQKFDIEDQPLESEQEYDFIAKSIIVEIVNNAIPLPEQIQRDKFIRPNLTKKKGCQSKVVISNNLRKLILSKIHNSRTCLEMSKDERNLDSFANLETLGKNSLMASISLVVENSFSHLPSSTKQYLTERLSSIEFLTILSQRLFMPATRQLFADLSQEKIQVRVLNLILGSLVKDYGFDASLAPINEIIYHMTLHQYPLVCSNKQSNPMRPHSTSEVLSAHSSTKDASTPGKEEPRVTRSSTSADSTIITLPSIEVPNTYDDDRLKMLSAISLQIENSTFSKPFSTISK
- Experiment Summary: PBM E-score (8-mer binding enrichment) (E-score (-0.5 to 0.5)); higher = stronger / more preferred TF binding
- Particulars: protein concentration: 200 nM; construct: GST-full length
In all, about 33,000 sequences were measured (“E-score (-0.5 to 0.5)”: median about -0.036, highest 2% from about 0.37 on). The sample holds the highest values, similar sequences and a random draw of the others, so the mix is not that of the screen.
Classification field: enter Satisfied for PBM E-score values not below 0.04, Not satisfied for values below it.

Observe how each entry below is paired with its result.
1. ACCGAGTC Satisfied
2. CGCGAGTA Satisfied
3. GAGCTTCA Not satisfied

Please indicate if the recorded PBM E-score for AGTCAGAT meets or exceeds 0.04.
Satisfied

Repeat with GATAGTCC
Satisfied

One more sequence: AAGGTAGA
Not satisfied

Okay, and AATCAGAT ?
Satisfied

Another sequence: AATAATCG
Satisfied

Try the sequence CGCGAGCC
Not satisfied

One more sequence: GATAGTCA
Satisfied

src = the supplement of paper PMC3334620
